system-name: HLA-A*26:01
protocol-notes: IEDB peptide-MHC binding, purified MHC/direct/fluorescence; filed as Kd, often an IC50 or EC50 that approximates it; bounds were set here for any values at or beyond the usual limits of such assays
setup-conditions: source organism: Ebola virus - Gabon (1994-1997)
metric: Kd (nM)
Just the number in nM, nothing appended.

Looking up TAAIMLASY , I see its Kd listed as 1290

* * *

system-name: HLA-A*02:03
protocol-notes: IEDB peptide-MHC binding, purified MHC/direct/fluorescence; filed as Kd, often an IC50 or EC50 that approximates it; bounds were set here for any values at or beyond the usual limits of such assays
setup-conditions: source organism: Giardia lamblia ATCC 50803
pKd: −log10 of the molar value.
metric: pKd

Notebook: VLLISDPGL , pKd read as ≤ 4.70

* * *

Measured Kd, listed per entry for reference.
system-name: HLA-A*02:02
protocol-notes: IEDB peptide-MHC binding, purified MHC/competitive/radioactivity; filed as Kd, often an IC50 or EC50 that approximates it; bounds were set here for any values at or beyond the usual limits of such assays
setup-conditions: source organism: Mammarenavirus whitewaterense
Could you give me the number in nM? Just the number is fine.

# sequence-input, system-name, metric, readout-value
rows = [
    ("KTVAGSFAS", "HLA-A*02:02", "Kd", 1590),
]

As a next step, examine the sequence that follows.
Entry FSAVISGSV ; Kd = 48.2

* * *

system-name: HLA-B*46:01
protocol-notes: IEDB peptide-MHC binding, purified MHC/direct/fluorescence; filed as Kd, often an IC50 or EC50 that approximates it; bounds were set here for any values at or beyond the usual limits of such assays
setup-conditions: source organism: Mycobacterium tuberculosis
metric: Kd

# sequence-input, readout-value
records = [
    ("QQDTNSAGL", "≥ 20 µM"),
]

Now look at this entry.
Readout Kd for RVEESRARL , test system HLA-B*46:01, was ≥ 20 µM

* * *

system-name: HLA-B*51:01
protocol-notes: IEDB peptide-MHC binding, purified MHC/direct/fluorescence; filed as Kd, often an IC50 or EC50 that approximates it; bounds were set here for any values at or beyond the usual limits of such assays
setup-conditions: source organism: Vibrio vulnificus YJ016
metric: Kd

// assay HLA-B*51:01, entry MKYVWPPIM , Kd value = ≥ 20 µM

* * *

system-name: HLA-B*45:01
protocol-notes: IEDB peptide-MHC binding, purified MHC/competitive/radioactivity; filed as Kd, often an IC50 or EC50 that approximates it; bounds were set here for any values at or beyond the usual limits of such assays
setup-conditions: source organism: Lymphocytic choriomeningitis virus (strain WE)
pKd: −log10 of the molar value.
metric: pKd

Entry KEPVESCPL — recorded pKd = ≤ 4.23

* * *

system-name: HLA-B*18:01
protocol-notes: IEDB peptide-MHC binding, purified MHC/competitive/fluorescence; filed as Kd, often an IC50 or EC50 that approximates it; bounds were set here for any values at or beyond the usual limits of such assays
setup-conditions: source organism: Bacillus anthracis str. A0488
pKd: −log10 of the molar value.
# pKd per entry

# sequence-input, metric, readout-value
records = [
    ("SYMLQGLRK", "pKd", "≤ 4.70"),
]

IQKGMFVVK yielded pKd of ≤ 4.70

* * *

system-name: HLA-B*39:01
protocol-notes: IEDB peptide-MHC binding, purified MHC/competitive/fluorescence; filed as Kd, often an IC50 or EC50 that approximates it; bounds were set here for any values at or beyond the usual limits of such assays
setup-conditions: source organism: Tetraodon nigroviridis
metric: Kd

Kd recorded for this sequence, NTFKFGVIY , is ≥ 20 µM
